tested on: JLAT 10.6 cells, which have HIV-1-GFP stably integrated; assay: Reactivation of HIV from latency in JLAT 10.6 cells (GFP, FACS); format: cell-based; details: J-Lat 10.6, 24 h, read-out: EC50 in reactivating HIV from latency
Endpoint Label: pEC50
pEC50 here: minus log base 10 of the concentration, concentration in moles per litre.

| Compound | Measurement |
| --- | --- |
| CCCCCCCC(=O)SCC/C=C/[C@@H]1CC(=O)NCc2nc(cs2)C2=N[C@@](C)(CS2)C(=O)N[C@@H](C(C)C)C(=O)O1 | 6.82 |

Here's the next entry for you.
Give the measured pEC50 of CC(=O)SCC/C=C/[C@@H]1CC(=O)NCc2cc(ccn2)C2=N[C@@](C)(CS2)C(=O)N[C@@H](C(C)C)C(=O)O1 [SD-L-256, reference compound] .
5.80

###

Overview of reported inhibition at 30 µM across a group of molecules:
target: recombinant human KDAC3 (Homo sapiens, UniProt O15379); construct: purchased BPS Bioscience; experiment: KDAC inhibition assay, Caliper EZ Reader II; assay type: biochemical
Sequence (O15379 whole entry): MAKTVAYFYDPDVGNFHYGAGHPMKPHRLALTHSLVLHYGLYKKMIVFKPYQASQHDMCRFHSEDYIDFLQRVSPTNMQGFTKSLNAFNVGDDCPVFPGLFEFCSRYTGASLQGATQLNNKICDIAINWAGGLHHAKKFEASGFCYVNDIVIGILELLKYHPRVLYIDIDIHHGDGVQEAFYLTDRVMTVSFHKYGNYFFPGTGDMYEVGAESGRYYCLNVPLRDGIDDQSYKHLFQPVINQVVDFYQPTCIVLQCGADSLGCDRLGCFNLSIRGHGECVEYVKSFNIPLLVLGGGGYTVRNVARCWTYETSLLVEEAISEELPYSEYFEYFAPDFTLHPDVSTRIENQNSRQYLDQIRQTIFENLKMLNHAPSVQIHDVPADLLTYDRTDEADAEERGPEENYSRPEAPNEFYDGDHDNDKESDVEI
Sequence (Q9Y618 395-489 partner limits assumed): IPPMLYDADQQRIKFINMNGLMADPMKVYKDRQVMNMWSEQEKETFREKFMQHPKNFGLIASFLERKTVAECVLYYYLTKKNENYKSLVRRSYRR
Positions of bridges follow the written chain, without caps; N, C: chain ends. Non-standard residues stand in square brackets, D forms with d. Residues, ends and D or L forms follow the SMILES beside them. *: point of attachment. GABA = NCCCC(=O)O; NHOH = ON*
// units = %; emit number, no label

| Molecule | Measurement Units | inhibition at 30 µM |
| --- | --- | --- |
| CC(C)[C@@H]1NC(=O)[C@@H]2CCCN2C(=O)[C@H]2CCCN2C(=O)C[C@H](C(=O)O)NC1=O [Compound 3b, Cyclo-^DAsp(^DPro-Pro-Val)-OH] ([dP]PV[dD]-OH; lactam N-4) | % | 3 |

Give the measured inhibition at 30 µM of CC(C)[C@@H]1NC(=O)[C@@H]2CCCN2C(=O)[C@H]2CCCN2C(=O)C[C@@H](C(=O)NCCCC(=O)NO)NC1=O [Compound 14a] ([dP]PVD[GABA]-{NHOH}; lactam N-4) .
67

Give the measured inhibition at 30 µM of CC(C)[C@@H]1NC(=O)[C@H]2CCCN2C(=O)[C@@H]2CCCN2C(=O)C[C@@H](C(=O)NCCCC(=O)NO)NC1=O [Compound 25a] (P[dP]VD[GABA]-{NHOH}; lactam N-4) .
45

Give the measured inhibition at 30 µM of CC(C)[C@@H]1NC(=O)[C@@H]2CCCN2C(=O)[C@H]2CCCN2C(=O)C[C@@H](C(=O)O)NC1=O [Compound 3a, Cyclo-Asp(^DPro-Pro-Val)-OH] ([dP]PVD-OH; lactam N-4) .
1

###

Overview of reported inhibition at 30 µM across a group of compounds:
biological target: recombinant human KDAC8 (Homo sapiens, UniProt Q9BY41); construct: purchased BPS Bioscience; experiment: KDAC inhibition assay, Caliper EZ Reader II; type: biochemical
Sequence (Q9BY41 whole entry): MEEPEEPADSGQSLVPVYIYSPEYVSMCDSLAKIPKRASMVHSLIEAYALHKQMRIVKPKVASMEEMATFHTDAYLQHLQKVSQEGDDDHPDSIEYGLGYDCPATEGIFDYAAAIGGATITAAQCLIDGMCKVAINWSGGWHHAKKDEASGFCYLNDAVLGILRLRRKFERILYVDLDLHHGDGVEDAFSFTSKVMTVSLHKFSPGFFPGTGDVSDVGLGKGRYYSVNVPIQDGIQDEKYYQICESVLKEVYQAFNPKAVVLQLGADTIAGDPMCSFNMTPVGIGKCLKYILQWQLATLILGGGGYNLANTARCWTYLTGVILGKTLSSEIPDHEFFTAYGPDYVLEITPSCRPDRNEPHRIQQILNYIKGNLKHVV
Positions of bridges follow the written chain, without caps; N, C: chain ends. Non-standard residues stand in square brackets, D forms with d. Residues, ends and D or L forms follow the SMILES beside them. *: point of attachment. GABA = NCCCC(=O)O; NHOH = ON*
// units = %; emit number, no label

Use these answered entries as a reference point.
| Compound | Measured Target | Endpoint Label | Measurement |
| --- | --- | --- | --- |
| CC(C)[C@@H]1NC(=O)[C@H]2CCCN2C(=O)[C@@H]2CCCN2C(=O)C[C@@H](C(=O)NCCCC(=O)NO)NC1=O [Compound 25a] (P[dP]VD[GABA]-{NHOH}; lactam N-4) | recombinant human KDAC8 (Homo sapiens, UniProt Q9BY41) | inhibition at 30 µM | 34 |
| CC(=O)SCC/C=C/[C@@H]1CC(=O)NCc2cc(ccn2)C2=N[C@@](C)(CS2)C(=O)N[C@@H](C(C)C)C(=O)O1 [SD-L-256, reference compound] | recombinant human KDAC8 (Homo sapiens, UniProt Q9BY41) | inhibition at 30 µM | 39 |
| CC(C)[C@@H]1NC(=O)[C@@H]2CCCN2C(=O)[C@H]2CCCN2C(=O)C[C@@H](C(=O)NCCCC(=O)NO)NC1=O [Compound 14a] ([dP]PVD[GABA]-{NHOH}; lactam N-4) | recombinant human KDAC8 (Homo sapiens, UniProt Q9BY41) | inhibition at 30 µM | 31 |

Give the measured inhibition at 30 µM of CCCCCCCC(=O)SCC/C=C/[C@@H]1CC(=O)NCc2nc(cs2)C2=N[C@@](C)(CS2)C(=O)N[C@@H](C(C)C)C(=O)O1 .
28
